# System: Human immunodeficiency virus 1
# experiment_description: Antiviral activity against HIV1 infected in human TZM-bl cells assessed as inhibition of viral infection at 10 uM preincubated with cells for 5 mins followed by viral infection measured after 24 hrs by Bright Glo luciferase reporter gene assay relative to control
# Format: functional
# condition: Human immunodeficiency virus 1, TZM-bl
For each record, write down the corresponding inhibition at 10 µM.
Give the value, in units of %, as a plain number.

[Q] Which inhibition at 10 µM value belongs to CCOc1ccc(Br)cc1-c1oc2ccccc2c(=O)c1O ?
[A] 51.7

[Q] Which inhibition at 10 µM value belongs to COc1cc(OC)c(-c2oc3ccccc3c(=O)c2O)cc1Br ?
[A] 43.6

[Q] Which inhibition at 10 µM value belongs to CCOc1ccc(Cl)cc1/C=C1\Oc2cccc(OCc3ccccc3)c2C1=O ?
[A] 15.7

[Q] Which inhibition at 10 µM value belongs to COc1ccc(Br)cc1/C=C1\Oc2cccc(OC)c2C1=O ?
[A] 9.2

[Q] Which inhibition at 10 µM value belongs to CCOc1ccc(Cl)cc1/C=C/C(=O)c1ccccc1O ?
[A] 86.1

[Q] Which inhibition at 10 µM value belongs to CCOc1ccc(Br)cc1/C=C/C(=O)c1c(O)cccc1OCc1ccccc1 ?
[A] 60.2
